Quick list: Kd per entry.
Sequence of the target: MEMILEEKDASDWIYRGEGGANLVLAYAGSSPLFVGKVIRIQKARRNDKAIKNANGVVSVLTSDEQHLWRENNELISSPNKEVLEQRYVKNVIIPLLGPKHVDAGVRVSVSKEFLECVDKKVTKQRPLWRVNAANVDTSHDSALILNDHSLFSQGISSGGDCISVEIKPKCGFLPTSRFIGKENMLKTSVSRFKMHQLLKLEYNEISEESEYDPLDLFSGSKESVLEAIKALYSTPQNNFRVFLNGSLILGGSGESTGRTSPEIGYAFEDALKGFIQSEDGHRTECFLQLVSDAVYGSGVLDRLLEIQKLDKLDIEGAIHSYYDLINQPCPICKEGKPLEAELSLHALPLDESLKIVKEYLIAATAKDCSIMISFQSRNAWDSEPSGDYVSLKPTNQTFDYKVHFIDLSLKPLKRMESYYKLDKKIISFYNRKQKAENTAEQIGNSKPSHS
// return numeric value only (unit: µM, not printed)

O=P(O)(O)O[C@H]1[C@H](O)[C@@H](OP(=O)(O)O)[C@H](OP(=O)(O)O)[C@@H](OP(=O)(O)O)[C@H]1O 18.2
O=P(O)(O)O[C@@H]1[C@@H](OP(=O)(O)O)[C@H](OP(=O)(O)O)[C@@H](O)[C@@H](O)[C@H]1OP(=O)(O)O 8.2
O=P(O)(O)O[C@H]1[C@H](OP(=O)(O)O)[C@@H](OP(=O)(O)O)[C@@H](O)[C@@H](O)[C@@H]1OP(=O)(O)O 7.52

Continue with the next compound.
[ask] Form field: reported Kd of O=P(O)(O)O[C@@H]1[C@@H](OP(=O)(O)O)[C@H](OP(=O)(O)O)[C@H](O)[C@H](OP(=O)(O)O)[C@H]1OP(=O)(O)O
[reply] 0.6

Value source: BindingDB's records for doi:10.1074/jbc.M113.487777
